Quick reference: zone of inhibition at 250 µg/mL of the listed items.
# System: Proteus vulgaris
# MEASUREMENT_NOTES: Antibacterial activity against Proteus vulgaris at 250 ug/ml after 24 to 45 hrs by disc diffusion method
# Format: functional
# EXPERIMENTAL_SETUP: read-out: IZ

{"columns": ["SMILES_CODE", "TESTED_SYSTEM", "zone of inhibition at 250 µg/mL (mm)"],
 "data": [
  ["Cc1cc2c(cc1I)N1Cc3cc(C)c(I)cc3N(C2)C1", "Proteus vulgaris", 8],
  ["O=[N+]([O-])c1ccc2c(c1)CN1CN2Cc2cc([N+](=O)[O-])ccc21", "Proteus vulgaris", 13],
  ["Brc1cccc2c1N1Cc3cccc(Br)c3N(C2)C1", "Proteus vulgaris", 8],
  ["Cc1cc(Cl)cc2c1N1Cc3cc(Cl)cc(C)c3N(C2)C1", "Proteus vulgaris", 8],
  ["CCOC(=O)c1ccc2c(c1)CN1CN2Cc2cc(C(=O)OCC)ccc21", "Proteus vulgaris", 13],
  ["Clc1ccc2c(c1)CN1CN2Cc2cc(Cl)ccc21", "Proteus vulgaris", 13],
  ["Cc1cc2c(cc1F)N1Cc3cc(C)c(F)cc3N(C2)C1", "Proteus vulgaris", 13],
  ["Cc1cc(F)c2c(c1)CN1CN2Cc2cc(C)cc(F)c21", "Proteus vulgaris", 13],
  ["Cc1cc2c(cc1Br)N1Cc3cc(C)c(Br)cc3N(C2)C1", "Proteus vulgaris", 8],
  ["Brc1ccc2c(c1)CN1CN2Cc2cc(Br)ccc21", "Proteus vulgaris", 13],
  ["c1ccc2c(c1)CN1CN2Cc2ccccc21", "Proteus vulgaris", 8],
  ["Nc1ccc2c(c1)CN1CN2Cc2cc(N)ccc21", "Proteus vulgaris", 13],
  ["Cc1cc([N+](=O)[O-])cc2c1N1Cc3cc([N+](=O)[O-])cc(C)c3N(C2)C1", "Proteus vulgaris", 13],
  ["N#Cc1ccc2c(c1)CN1CN2Cc2cc(C#N)ccc21", "Proteus vulgaris", 13],
  ["Clc1ccc2c(c1)N1Cc3ccc(Cl)cc3N(C2)C1", "Proteus vulgaris", 13],
  ["Cc1ccc2c(c1O)CN1CN2Cc2c1ccc(C)c2O", "Proteus vulgaris", 8],
  ["Cc1cc(Br)cc2c1N1Cc3cc(Br)cc(C)c3N(C2)C1", "Proteus vulgaris", 8],
  ["COc1ccc2c(c1Br)CN1CN2Cc2c1ccc(OC)c2Br", "Proteus vulgaris", 20],
  ["COc1ccc2c(c1)CN1CN2Cc2cc(OC)ccc21", "Proteus vulgaris", 13],
  ["Fc1ccc2c(c1)CN1CN2Cc2cc(F)ccc21", "Proteus vulgaris", 13],
  ["O=C(c1ccccc1)c1cc(Cl)cc2c1N1Cc3cc(Cl)cc(C(=O)c4ccccc4)c3N(C2)C1", "Proteus vulgaris", 13],
  ["Brc1ccc2c(c1)N1Cc3ccc(Br)cc3N(C2)C1", "Proteus vulgaris", 8],
  ["Clc1cccc2c1N1Cc3cccc(Cl)c3N(C2)C1", "Proteus vulgaris", 8],
  ["Cc1cc(Cl)c2c(c1)CN1CN2Cc2cc(C)cc(Cl)c21", "Proteus vulgaris", 13],
  ["Brc1cccc2c1CN1CN2Cc2c(Br)cccc21", "Proteus vulgaris", 8],
  ["Cc1cc(N)cc2c1N1Cc3cc(N)cc(C)c3N(C2)C1", "Proteus vulgaris", 13],
  ["CCOc1ccc2c(c1)CN1CN2Cc2cc(OCC)ccc21", "Proteus vulgaris", 13],
  ["Cc1ccc2c(c1Br)CN1CN2Cc2c1ccc(C)c2Br", "Proteus vulgaris", 13],
  ["Fc1cccc2c1N1Cc3cccc(F)c3N(C2)C1", "Proteus vulgaris", 8],
  ["Cc1ccc2c(c1)CN1CN2Cc2cc(C)ccc21", "Proteus vulgaris", 8],
  ["CCCOC(=O)c1ccc2c(c1)CN1CN2Cc2cc(C(=O)OCCC)ccc21", "Proteus vulgaris", 13],
  ["Fc1cc2c(cc1Cl)N1Cc3cc(F)c(Cl)cc3N(C2)C1", "Proteus vulgaris", 13],
  ["Clc1cccc2c1CN1CN2Cc2c(Cl)cccc21", "Proteus vulgaris", 8],
  ["FC(F)(F)c1ccc2c(c1)CN1CN2Cc2cc(C(F)(F)F)ccc21", "Proteus vulgaris", 13],
  ["Cc1cc(Br)c2c(c1)CN1CN2Cc2cc(C)cc(Br)c21", "Proteus vulgaris", 13],
  ["Cc1ccc2c(c1Cl)CN1CN2Cc2c1ccc(C)c2Cl", "Proteus vulgaris", 13],
  ["Cc1cc(N)c2c(c1)CN1CN2Cc2cc(C)cc(N)c21", "Proteus vulgaris", 13],
  ["COc1cc(C)c2c(c1)CN1CN2Cc2cc(OC)cc(C)c21", "Proteus vulgaris", 8],
  ["Fc1cc(F)c2c(c1)CN1CN2Cc2cc(F)cc(F)c21", "Proteus vulgaris", 8],
  ["COc1cc2c(cc1Cl)N1Cc3cc(OC)c(Cl)cc3N(C2)C1", "Proteus vulgaris", 20],
  ["Fc1ccc2c(c1)N1Cc3ccc(F)cc3N(C2)C1", "Proteus vulgaris", 13],
  ["Cc1cccc2c1N1Cc3cccc(C)c3N(C2)C1", "Proteus vulgaris", 8],
  ["Cc1cc(C)c2c(c1)CN1CN2Cc2cc(C)cc(C)c21", "Proteus vulgaris", 13],
  ["Cc1cc2c(cc1Cl)N1Cc3cc(C)c(Cl)cc3N(C2)C1", "Proteus vulgaris", 8],
  ["Cc1ccc2c(c1I)CN1CN2Cc2c1ccc(C)c2I", "Proteus vulgaris", 8],
  ["Cc1cc(C#N)c2c(c1)CN1CN2Cc2cc(C)cc(C#N)c21", "Proteus vulgaris", 8],
  ["CC(=O)c1cccc2c1N1Cc3cccc(C(C)=O)c3N(C2)C1", "Proteus vulgaris", 8],
  ["Cc1cc(I)c2c(c1)CN1CN2Cc2cc(C)cc(I)c21", "Proteus vulgaris", 13],
  ["COc1ccc2c(c1Cl)CN1CN2Cc2c1ccc(OC)c2Cl", "Proteus vulgaris", 20]
]}

###

# System: Pseudomonas
# MEASUREMENT_NOTES: Antibacterial activity against Pseudomonas at 250 ug/ml after 24 to 45 hrs by disc diffusion method
# Type: functional
# EXPERIMENTAL_SETUP: read-out: IZ

{"columns": ["SMILES_CODE", "zone of inhibition at 250 µg/mL / mm"],
 "data": [
  ["COc1ccc2c(c1Cl)CN1CN2Cc2c1ccc(OC)c2Cl", 20],
  ["Brc1cccc2c1N1Cc3cccc(Br)c3N(C2)C1", 8],
  ["Cc1ccc2c(c1I)CN1CN2Cc2c1ccc(C)c2I", 13],
  ["Cc1cc2c(cc1Br)N1Cc3cc(C)c(Br)cc3N(C2)C1", 8],
  ["c1ccc2c(c1)CN1CN2Cc2ccccc21", 8],
  ["COc1cc2c(cc1Cl)N1Cc3cc(OC)c(Cl)cc3N(C2)C1", 20],
  ["Cc1ccc2c(c1Cl)CN1CN2Cc2c1ccc(C)c2Cl", 13],
  ["Cc1cc([N+](=O)[O-])cc2c1N1Cc3cc([N+](=O)[O-])cc(C)c3N(C2)C1", 13],
  ["COc1cc(C)c2c(c1)CN1CN2Cc2cc(OC)cc(C)c21", 20],
  ["Fc1cc(F)c2c(c1)CN1CN2Cc2cc(F)cc(F)c21", 8],
  ["Clc1ccc2c(c1)CN1CN2Cc2cc(Cl)ccc21", 13],
  ["FC(F)(F)c1ccc2c(c1)CN1CN2Cc2cc(C(F)(F)F)ccc21", 13],
  ["Cc1cc2c(cc1F)N1Cc3cc(C)c(F)cc3N(C2)C1", 13],
  ["Brc1ccc2c(c1)N1Cc3ccc(Br)cc3N(C2)C1", 8],
  ["Cc1cc(C#N)c2c(c1)CN1CN2Cc2cc(C)cc(C#N)c21", 8],
  ["Brc1cccc2c1CN1CN2Cc2c(Br)cccc21", 13],
  ["Cc1cc(Br)cc2c1N1Cc3cc(Br)cc(C)c3N(C2)C1", 13],
  ["O=[N+]([O-])c1ccc2c(c1)CN1CN2Cc2cc([N+](=O)[O-])ccc21", 13],
  ["Cc1ccc2c(c1)CN1CN2Cc2cc(C)ccc21", 8],
  ["Cc1ccc2c(c1O)CN1CN2Cc2c1ccc(C)c2O", 8],
  ["Brc1ccc2c(c1)CN1CN2Cc2cc(Br)ccc21", 13],
  ["Cc1cc(C)c2c(c1)CN1CN2Cc2cc(C)cc(C)c21", 8],
  ["COc1ccc2c(c1)CN1CN2Cc2cc(OC)ccc21", 20],
  ["Cc1cc(Cl)cc2c1N1Cc3cc(Cl)cc(C)c3N(C2)C1", 13]
]}

###

# Tested on: Penicillium
# MEASUREMENT_NOTES: Antifungal activity against Penicillium at 50 ug/ml after 72 hrs by disc diffusion method
# Assay type: functional, organism-based
The source made the active and inactive calls. The rule behind the calls is not given here.
Classes used: t (active), f (inactive)

{"columns": ["SMILES_CODE", "TESTED_SYSTEM", "ANSWER_LABEL"],
 "data": [
  ["Cc1ccc2c(c1C)N1Cc3ccc(C)c(C)c3N(C2)C1", "Penicillium", "t"],
  ["Nc1ccc2c(c1)CN1CN2Cc2cc(N)ccc21", "Penicillium", "f"],
  ["N#Cc1ccc2c(c1)CN1CN2Cc2cc(C#N)ccc21", "Penicillium", "f"],
  ["Fc1cc2c(cc1Cl)N1Cc3cc(F)c(Cl)cc3N(C2)C1", "Penicillium", "t"],
  ["FC(F)(F)c1ccc2c(c1)CN1CN2Cc2cc(C(F)(F)F)ccc21", "Penicillium", "f"],
  ["CC(=O)c1cccc2c1N1Cc3cccc(C(C)=O)c3N(C2)C1", "Penicillium", "f"],
  ["COc1ccc2c(c1)CN1CN2Cc2cc(OC)ccc21", "Penicillium", "t"],
  ["Cc1cc(Cl)c2c(c1)CN1CN2Cc2cc(C)cc(Cl)c21", "Penicillium", "f"],
  ["Clc1ccc2c(c1)CN1CN2Cc2cc(Cl)ccc21", "Penicillium", "f"],
  ["Brc1ccc2c(c1)CN1CN2Cc2cc(Br)ccc21", "Penicillium", "t"],
  ["COc1ccc2c(c1Cl)CN1CN2Cc2c1ccc(OC)c2Cl", "Penicillium", "t"],
  ["COc1cc2c(cc1Cl)N1Cc3cc(OC)c(Cl)cc3N(C2)C1", "Penicillium", "t"]
]}
